experiment: self-splicing fitness, log relative to wild type (ln ratio); higher = more splicing; Tetrahymena group I intron in knt gene, E. coli kanamycin selection, DiMSum; sequences stand for … in CUCUCU…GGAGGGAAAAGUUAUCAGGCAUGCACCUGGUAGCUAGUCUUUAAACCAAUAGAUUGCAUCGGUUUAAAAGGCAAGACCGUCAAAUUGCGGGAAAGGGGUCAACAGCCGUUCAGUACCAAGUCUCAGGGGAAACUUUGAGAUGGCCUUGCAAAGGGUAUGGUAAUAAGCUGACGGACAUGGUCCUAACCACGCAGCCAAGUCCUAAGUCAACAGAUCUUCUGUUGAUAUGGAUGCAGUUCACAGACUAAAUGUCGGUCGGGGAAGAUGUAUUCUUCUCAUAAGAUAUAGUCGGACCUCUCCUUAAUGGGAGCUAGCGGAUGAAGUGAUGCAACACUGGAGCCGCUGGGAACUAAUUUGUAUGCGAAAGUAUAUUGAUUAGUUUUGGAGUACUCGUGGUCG; settings: 37 °C;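 also: selection with 25 µg/mL kanamycin versus none on LB agar overnight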
Label Y when self-splicing fitness (ln) >= -1; otherwise N.

Q. Could you please find out whether "CGAAAGCAAUAUUACGUUGU" has self-splicing fitness (ln) that meets -1 or exceeds it?
A. N

Q. Given "ACUAAGCAAUAUUACGCUGC" , state whether its self-splicing fitness (ln) is at least -1.
A. N

Q. In plain terms: is recorded self-splicing fitness (ln) at least -1 for "CCCCAGCAAUAUUACGUGGG" ?
A. N

Q. self-splicing fitness (ln) >= -1 for "GUCUAGCAAUAUUACGAACC" ?
A. Y

Q. API: above_or_equal(metric=self-splicing fitness (ln), cutoff=-1) for item "UGCUAGCAAUAUUACGGAUU"
A. N

Q. hey, is self-splicing fitness (ln) for this one >= -1? "ACAGAGCAAUAUUACGUUUU"
A. N

Q. Evaluate "UCAGAGCAAUAUUACGUUAG" : self-splicing fitness (ln) at minimum -1?
A. N

Q. Please check the record "CGUUAGCAAUAUUACGAGAU" and state if its self-splicing fitness (ln) is at or above -1.
A. N

Q. Please indicate if the recorded self-splicing fitness (ln) for "CUGGAGCAAUAUUACGAGCG" meets or exceeds -1.
A. Y

Q. Does self-splicing fitness (ln) meet or surpass -1 for "AUUAAGCAAUAUUACGCACA" ?
A. Y

Q. // inclusive: self-splicing fitness (ln) at least -1? input: "CUUAAGCAAUAUUACGACCG"
A. Y

Q. API: above_or_equal(metric=self-splicing fitness (ln), cutoff=-1) for item "CAUAAGCAAUAUUACGUCCG"
A. Y

Q. Could you tell me if the measured self-splicing fitness (ln) of "CCUAAGCAAUAUUACGACCG" reaches -1 or more?
A. Y

Q. Decide: is the reported value of self-splicing fitness (ln) for "UCGGAGCAAUAUUACGGUAC" equal to or greater than -1?
A. N

Q. For this sequence, is measured self-splicing fitness (ln) -1 or higher? "AGGAAGCAAUAUUACGAGCC"
A. N

Q. # bool: self-splicing fitness (ln) of "UAGAAGCAAUAUUACGUUCC" >= -1
A. Y

Q. Please check the record "GCUGAGCAAUAUUACGGAGU" and state if its self-splicing fitness (ln) is at or above -1.
A. N

Q. Quick check: does "CGCAAGCAAUAUUACGUAGU" have self-splicing fitness (ln) greater than or equal to -1?
A. N

Q. Decide: is the reported value of self-splicing fitness (ln) for "UCGGAGCAAUAUUACGAGUA" equal to or greater than -1?
A. N

Q. Entry "AAACAGCAAUAUUACGGUCC" : is its self-splicing fitness (ln) no less than -1?
A. Y

Q. Hi team, for "AGUAAGCAAUAUUACGAUGA" , is the recorded self-splicing fitness (ln) at or above -1?
A. N

Q. // inclusive: self-splicing fitness (ln) at least -1? input: "AACCAGCAAUAUUACGAACC"
A. Y

Q. I'd appreciate it if you could say whether "UUGAAGCAAUAUUACGUGGU" has self-splicing fitness (ln) at least equal to -1.
A. N

Q. Check the entry "ACCCAGCAAUAUUACGCACU" : does self-splicing fitness (ln) equal or exceed -1?
A. Y

Q. // inclusive: self-splicing fitness (ln) at least -1? input: "CAGAAGCAAUAUUACGCUCA"
A. Y

Q. State whether the measured self-splicing fitness (ln) reaches -1, counting equality as reaching it, for "AGGCAGCAAUAUUACGAGUA"
A. N

Q. Form field: self-splicing fitness (ln) at least -1? Entry: "UCUAAGCAAUAUUACGUGUU"
A. N

Q. Textbook exercise: given the entry "AGAGAGCAAUAUUACGACAC" , state whether its self-splicing fitness (ln) is greater than or equal to -1.
A. N

Q. For this sequence, is measured self-splicing fitness (ln) -1 or higher? "UAGUAGCAAUAUUACGAAUG"
A. Y

Q. Check if self-splicing fitness (ln) >= -1 (inclusive). Item: "UGGAAGCAAUAUUACGGGGG"
A. N

Q. Does "GUUGAGCAAUAUUACGGAUA" have a reported self-splicing fitness (ln) of at least -1?
A. N

Q. Reported self-splicing fitness (ln) reaches at least -1 for "AGAAAGCAAUAUUACGACAG" ?
A. Y

Q. Assess whether reported self-splicing fitness (ln) for "CUUAAGCAAUAUUACGACAC" sits at -1 or higher.
A. N

Q. Check this sequence for self-splicing fitness (ln) at or above -1: "AAAUAGCAAUAUUACGAAUG"
A. N

Q. Exam item: decide whether the reported self-splicing fitness (ln) for "ACUGAGCAAUAUUACGCUAG" is at least -1.
A. N

Q. Has "CUCCAGCAAUAUUACGGACG" a recorded self-splicing fitness (ln) greater than or equal to -1?
A. Y

Q. Decide: is the reported value of self-splicing fitness (ln) for "GUCCAGCAAUAUUACGUGAA" equal to or greater than -1?
A. Y

Q. Determine whether measured self-splicing fitness (ln) meets or exceeds -1 for "CGACAGCAAUAUUACGAUGC"
A. N

Q. Record "UUUAAGCAAUAUUACGAUCU" ; criterion: self-splicing fitness (ln) no lower than -1. Met?
A. Y

Q. Kindly determine if self-splicing fitness (ln) recorded for "GCAUAGCAAUAUUACGCAUU" is above or exactly -1.
A. Y

Q. Is the recorded value of self-splicing fitness (ln) equal to or greater than -1 for this sequence? "CGUGAGCAAUAUUACGGAUU"
A. N

Q. Check the entry "CGAGAGCAAUAUUACGCCCA" : does self-splicing fitness (ln) equal or exceed -1?
A. Y

Q. Is reported self-splicing fitness (ln) greater than or equal to -1 here: "CUAAAGCAAUAUUACGAGCA"
A. N

Q. Please indicate if the recorded self-splicing fitness (ln) for "UCACAGCAAUAUUACGUACU" meets or exceeds -1.
A. N

Q. Would you say "AGAAAGCAAUAUUACGCAUG" shows self-splicing fitness (ln) at minimum -1?
A. Y

Q. Determine whether measured self-splicing fitness (ln) meets or exceeds -1 for "GCACAGCAAUAUUACGCAAG"
A. N

Q. Is self-splicing fitness (ln) for "UUCCAGCAAUAUUACGUUCU" at or above -1?
A. N

Q. Threshold query (self-splicing fitness (ln) >= -1) on "AACCAGCAAUAUUACGCUAC"
A. N

Q. Form field: self-splicing fitness (ln) at least -1? Entry: "GCUAAGCAAUAUUACGCUAC"
A. N

Q. Answer whether self-splicing fitness (ln) of "GGAAAGCAAUAUUACGGGAU" is greater than or equal to -1.
A. N

Q. Has "AUUAAGCAAUAUUACGAACU" a recorded self-splicing fitness (ln) greater than or equal to -1?
A. Y

Q. Could you tell me if the measured self-splicing fitness (ln) of "CUCCAGCAAUAUUACGCAGU" reaches -1 or more?
A. N

Q. Form field: self-splicing fitness (ln) at least -1? Entry: "AUAGAGCAAUAUUACGGUUA"
A. N

Q. Does the sequence "UAAUAGCAAUAUUACGCCCU" have recorded self-splicing fitness (ln) that is -1 or more?
A. Y

Q. Given the entry "CCCAAGCAAUAUUACGCGUG" , answer whether its self-splicing fitness (ln) meets or surpasses -1.
A. N

Q. Threshold query (self-splicing fitness (ln) >= -1) on "UUAGAGCAAUAUUACGGGGG"
A. N

Q. Test whether the sequence "GUAUAGCAAUAUUACGUGUG" records self-splicing fitness (ln) of -1 or higher.
A. N

Q. Check if self-splicing fitness (ln) >= -1 (inclusive). Item: "ACAUAGCAAUAUUACGAGGC"
A. N

Q. Kindly determine if self-splicing fitness (ln) recorded for "GCUUAGCAAUAUUACGCUAU" is above or exactly -1.
A. N

Q. Could you tell me if the measured self-splicing fitness (ln) of "CCCCAGCAAUAUUACGCUAC" reaches -1 or more?
A. N

Q. // inclusive: self-splicing fitness (ln) at least -1? input: "CUUUAGCAAUAUUACGACAG"
A. Y

Q. Textbook exercise: given the entry "GAAAAGCAAUAUUACGAUAG" , state whether its self-splicing fitness (ln) is greater than or equal to -1.
A. N

Q. API: above_or_equal(metric=self-splicing fitness (ln), cutoff=-1) for item "CUAGAGCAAUAUUACGUUGA"
A. N

Q. For this sequence, is measured self-splicing fitness (ln) -1 or higher? "UCAAAGCAAUAUUACGUCAA"
A. N

Q. Quick check: does "UGGCAGCAAUAUUACGCUGG" have self-splicing fitness (ln) greater than or equal to -1?
A. N

Q. Say whether "GCCCAGCAAUAUUACGUCCA" shows self-splicing fitness (ln) of -1 or more.
A. N

Q. Reported self-splicing fitness (ln) reaches at least -1 for "AGAUAGCAAUAUUACGCAUA" ?
A. Y
